Data origin: patent US11702428B2

# target: UniProt:Q96P20
# procedure_text: NLRP3 inflammasome activation assay in PBMCs (LPS priming, nigericin), IL-1β by ELISA
# Format: cell-based
# Set-up: Human peripheral blood mononuclear cells (PBMCs); host or cells: primary human PBMCs from healthy donors
# measurement_parameters: LPS 100 ng/mL 3 h, nigericin 10 uM 1.5 h, read-out: IC50 IL-1β
# Protocol: Some of the following assays were used to determine the inhibitory activity of the compounds on the NLRP3 inflammasome using a common inflammasome activation stimuli-nigericin. […] For ELISA assays cells were seeded into 96-well plates. Post study, supernatants were removed and the levels of mature IL-1β, IL-18 and TNFα (Quantikine ELISA, R&D systems) were measured in cell conditioned media by ELISA according to manufacturer's instructions.
measured_attribute: IC50

[
  {
    "compound": "O=C(Nc1c2c(cc3c1CCC3)CCC2)NS(=O)(=O)c1cnn2c1OCC(O)C2 (stereo not shown) [drawing 500]",
    "result": "< 100 nM"
  },
  {
    "compound": "CC(C)c1cc(Cl)cc(C(C)C)c1NC(=O)NS(=O)(=O)c1cnn2c1OCCC2 [drawing 498]",
    "result": "100 to 1000 nM"
  },
  {
    "compound": "CC1(C)COc2c(S(=O)(=O)NC(=O)Nc3c4c(cc5c3CCC5)CCC4)cnn2C1 [drawing 499]",
    "result": "< 100 nM"
  },
  {
    "compound": "CC(C)c1cccc(C(C)C)c1NC(=O)NS(=O)(=O)c1cnn2c1OCCC2 [drawing 497]",
    "result": "1000 to 10000 nM"
  }
]

###

# procedure_text: Pharmacokinetics in mice
# Type: in vivo, CD-1 Mice
# measurement_parameters: mouse, plasma; Female CD-1 Mice, IV, 1 mg/kg

[
  {
    "molecule": "CN[C@H]1COc2c(S(=O)(=O)NC(=O)Nc3c4c(cc5c3CCC5)CCC4)cnn2C1 [D]",
    "clearance, L/h/kg": 0.3
  },
  {
    "molecule": "COC1CN([C@H]2COc3c(S(=O)(=O)NC(=O)Nc4c5c(cc6c4CCC6)CCC5)cnn3C2)C1 [E]",
    "clearance, L/h/kg": 0.64
  }
]

###

# procedure_text: Pharmacokinetics in mice
# Assay type: in vivo, CD-1 Mice
# measurement_parameters: mouse, plasma; Male CD-1 Mice, IV, 1 mg/kg

[
  {
    "structure": "CN(C)[C@H]1COc2c(S(=O)(=O)NC(=O)Nc3c4c(cc5c3CCC5)CCC4)cnn2C1",
    "unit_info": "h",
    "half-life": 1.3
  },
  {
    "structure": "CC1(C)COc2c(S(=O)(=O)NC(=O)Nc3c4c(cc5c3CCC5)CCC4)cnn2C1",
    "unit_info": "h",
    "half-life": 2.8
  },
  {
    "structure": "O=C(Nc1c2c(cc3c1CCC3)CCC2)NS(=O)(=O)c1cnn2c1OCC1(CC1)C2",
    "unit_info": "h",
    "half-life": 1.9
  }
]

###

Overview of recorded Vd for various compounds
# procedure_text: Pharmacokinetics in mice
# Assay type: in vivo, CD-1 Mice
# measurement_parameters: mouse, plasma; Female CD-1 Mice, IV, 1 mg/kg; read-out: Vz

[
  {
    "compound": "CN[C@H]1COc2c(S(=O)(=O)NC(=O)Nc3c4c(cc5c3CCC5)CCC4)cnn2C1 [D]",
    "unit_info": "L/kg",
    "Vd": 0.69
  },
  {
    "compound": "COC1CN([C@H]2COc3c(S(=O)(=O)NC(=O)Nc4c5c(cc6c4CCC6)CCC5)cnn3C2)C1 [E]",
    "unit_info": "L/kg",
    "Vd": 1.47
  }
]

###

# target: UniProt:Q96P20
# procedure_text: NLRP3 inflammasome activation assay in PBMCs (LPS priming, nigericin), IL-1β by ELISA
# Format: cell-based
# Set-up: Human peripheral blood mononuclear cells (PBMCs); host or cells: primary human PBMCs from healthy donors
# measurement_parameters: LPS, nigericin, read-out: PBMC IL-1β IC50
pIC50: −log10 of the molar value.

[
  {
    "structure": "CC[C@@H]1COc2c(S(=O)(=O)NC(=O)Nc3c4c(cc5c3CCC5)CCC4)cnn2C1",
    "pIC50": "6.00 to 7.00"
  },
  {
    "structure": "CCO[C@H]1COc2c(S(=O)(=O)NC(=O)Nc3c4c(cc5c3CCC5)CCC4)cnn2C1",
    "pIC50": "> 7.00"
  },
  {
    "structure": "Cc1nn2c(c1S(=O)(=O)NC(=O)Nc1c3c(cc4c1CCC4)CCC3)OCCC2",
    "pIC50": "6.00 to 7.00"
  },
  {
    "structure": "CN1CCn2nc(S(=O)(=O)NC(=O)Nc3c4c(cc5c3CCC5)CCC4)cc2C1=O",
    "pIC50": "5.00 to 6.00"
  },
  {
    "structure": "O=C(Nc1c2c(cc3c1CCC3)CCC2)NS(=O)(=O)c1cc2n(n1)CCNC2=O",
    "pIC50": "6.00 to 7.00"
  }
]

###

Overview of recorded pIC50 for various compounds
# target: NLRP3 inflammasome (Homo sapiens, UniProt Q96P20)
# Sequence (Q96P20 whole entry): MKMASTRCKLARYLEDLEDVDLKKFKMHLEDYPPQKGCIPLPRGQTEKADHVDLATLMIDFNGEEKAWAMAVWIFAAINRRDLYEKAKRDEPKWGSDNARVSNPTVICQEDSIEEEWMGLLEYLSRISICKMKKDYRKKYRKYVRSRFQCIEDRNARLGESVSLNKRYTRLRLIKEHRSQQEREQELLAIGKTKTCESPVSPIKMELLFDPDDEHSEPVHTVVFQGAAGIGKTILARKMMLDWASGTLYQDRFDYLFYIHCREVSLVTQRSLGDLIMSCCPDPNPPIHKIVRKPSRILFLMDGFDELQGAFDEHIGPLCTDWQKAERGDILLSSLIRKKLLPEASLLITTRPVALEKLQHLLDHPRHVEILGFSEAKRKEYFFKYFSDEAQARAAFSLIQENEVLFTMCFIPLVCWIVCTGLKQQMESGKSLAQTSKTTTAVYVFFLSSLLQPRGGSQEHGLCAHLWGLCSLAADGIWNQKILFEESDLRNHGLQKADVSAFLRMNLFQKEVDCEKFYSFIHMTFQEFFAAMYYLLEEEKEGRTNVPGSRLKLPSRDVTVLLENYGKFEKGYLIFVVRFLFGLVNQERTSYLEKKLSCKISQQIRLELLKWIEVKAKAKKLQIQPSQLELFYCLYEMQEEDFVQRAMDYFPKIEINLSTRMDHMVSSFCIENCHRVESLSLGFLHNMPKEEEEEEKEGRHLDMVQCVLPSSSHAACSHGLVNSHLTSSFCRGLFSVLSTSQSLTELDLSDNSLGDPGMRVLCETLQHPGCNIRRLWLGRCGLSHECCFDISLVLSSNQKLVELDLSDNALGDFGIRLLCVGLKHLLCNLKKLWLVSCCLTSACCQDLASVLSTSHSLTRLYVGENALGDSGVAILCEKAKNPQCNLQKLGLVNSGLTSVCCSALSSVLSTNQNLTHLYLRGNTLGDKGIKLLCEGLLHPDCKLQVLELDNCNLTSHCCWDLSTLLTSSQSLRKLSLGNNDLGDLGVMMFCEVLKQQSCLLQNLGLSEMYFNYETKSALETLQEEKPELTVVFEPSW
# procedure_text: NLRP3 inflammasome activation assay in PBMCs (LPS priming, nigericin), IL-1β by ELISA
# Type: cell-based
# Parameters: Human peripheral blood mononuclear cells (PBMCs); host or cells: primary human PBMCs from healthy donors
# measurement_parameters: LPS, nigericin, read-out: PBMC IL-1β IC50
pIC50: −log10 of the molar value.

[
  {
    "compound": "CCN[C@H]1COc2c(S(=O)(=O)NC(=O)Nc3c4c(cc5c3CCC5)CCC4)cnn2C1",
    "pIC50": "> 7.00"
  },
  {
    "compound": "CC1(C)COc2c(S(=O)(=O)NC(=O)Nc3c4c(c(Cl)c5c3CCC5)CCC4)cnn2C1",
    "pIC50": "6.00 to 7.00"
  },
  {
    "compound": "O=C(Nc1c2c(cc3c1CCC3)CCC2)NS(=O)(=O)c1cnn2c1OCC(CNC(=O)C(F)(F)F)C2 (stereo not drawn)",
    "pIC50": "> 7.00"
  },
  {
    "compound": "NCC1COc2c(S(=O)(=O)NC(=O)Nc3c4c(cc5c3CCC5)CCC4)cnn2C1 (stereo not drawn)",
    "pIC50": "6.00 to 7.00"
  },
  {
    "compound": "O=C(Nc1c2c(cc3c1CCC3)CCC2)NS(=O)(=O)c1cnn2c1OCC(N1CC(F)C1)C2 (stereo not drawn)",
    "pIC50": "6.00 to 7.00"
  },
  {
    "compound": "CCN[C@@H]1COc2c(S(=O)(=O)NC(=O)Nc3c4c(cc5c3CCC5)CCC4)cnn2C1",
    "pIC50": "5.00 to 6.00"
  },
  {
    "compound": "CO[C@H]1COc2c(S(=O)(=O)NC(=O)Nc3c4c(c(F)c5c3CCC5)CCC4)cnn2C1",
    "pIC50": "> 7.00"
  },
  {
    "compound": "O=C(Nc1c2c(c(Cl)c3c1CCC3)CCC2)NS(=O)(=O)c1cnn2c1OCCC2 [drawing 520]",
    "pIC50": "> 7.00"
  },
  {
    "compound": "CO[C@H]1COc2c(S(=O)(=O)NC(=O)Nc3c(C(C)C)cc(F)cc3C(C)C)cnn2C1",
    "pIC50": "> 7.00"
  },
  {
    "compound": "O=C(Nc1c(C2CC2)cc(Cl)cc1C1CC1)NS(=O)(=O)c1cnn2c1OCCC2",
    "pIC50": "6.00 to 7.00"
  },
  {
    "compound": "CC(C)c1cc(Cl)cc(C(C)C)c1NC(=O)NS(=O)(=O)c1cnn2c1OCCC2 [drawing 512]",
    "pIC50": "6.00 to 7.00"
  },
  {
    "compound": "O=C(Nc1c2c(cc3c1CCC3)CCC2)NS(=O)(=O)c1cnn2c1OC[C@@H](O)C2",
    "pIC50": "6.00 to 7.00"
  },
  {
    "compound": "O=C(Nc1c2c(cc3c1CCC3)CCC2)NS(=O)(=O)c1cc2n(n1)CCNC2",
    "pIC50": "6.00 to 7.00"
  },
  {
    "compound": "CC1(C)Cc2cccc(NC(=O)NS(=O)(=O)c3cnn4c3OCCC4)c2O1",
    "pIC50": "< 5.00"
  },
  {
    "compound": "CC(C)c1cccc(C(C)C)c1NC(=O)NS(=O)(=O)c1cnn2c1OCCC2 [drawing 511]",
    "pIC50": "5.00 to 6.00"
  },
  {
    "compound": "CC(=O)NCC1COc2c(S(=O)(=O)NC(=O)Nc3c4c(cc5c3CCC5)CCC4)cnn2C1 (stereo not drawn)",
    "pIC50": "> 7.00"
  },
  {
    "compound": "CO[C@H]1COc2c(S(=O)(=O)NC(=O)Nc3c4c(cc5c3CCC5)CCC4)cnn2C1",
    "pIC50": "> 7.00"
  },
  {
    "compound": "O=C(Nc1c2c(cc3c1CCC3)CCC2)NS(=O)(=O)c1cnn2c1C(F)(F)CCC2",
    "pIC50": "6.00 to 7.00"
  }
]
